Test system: HCT-116 colon
Assay: NCI-60 one-dose screen, 48 h (100 = growth as untreated, 0 = no growth, -100 = all killed)
Details: 10 µM unless noted
The panel holds about 83,000 compounds, 20% with a hit somewhere; the sample as a whole holds those more often.
# growth per record follows

{"structureSmilesString": "N#Cc1c(NC(=O)c2ccccc2)sc2c1CCC(=O)C2", "unitSpec": "%", "growth": 5.81}
{"structureSmilesString": "O=C1c2ccc3c4ccc5c6c(ccc(c7ccc(c2c37)C(=O)N1CCC[P+](c1ccccc1)(c1ccccc1)c1ccccc1)c64)C(=O)N(CCC[P+](c1ccccc1)(c1ccccc1)c1ccccc1)C5=O", "unitSpec": "%", "growth": 46}
{"structureSmilesString": "O=C1COCCN1c1ccc(Nc2nc(Cl)nc(OCc3cn(Cc4ccccc4)nn3)n2)cc1", "unitSpec": "%", "growth": 91.9}
{"structureSmilesString": "COc1ccc(-c2csc(N(C(=O)N3CCN(c4cc5c(cc4F)c(=O)c(C(=O)O)cn5C4CC4)CC3)c3ccccc3)n2)cc1", "unitSpec": "%", "growth": 6.33}
{"structureSmilesString": "CC(C)(C)n1cc(-c2ccnc(NCCCNS(=O)(=O)c3ccc(F)cc3)c2)c(-c2cccc(F)c2)n1", "unitSpec": "%", "growth": 37}
{"structureSmilesString": "O=C(/C=C(/C=C/c1cccc2[nH]ccc12)OB(F)F)/C=C/c1cccc2[nH]ccc12", "unitSpec": "%", "growth": -84.7}
{"structureSmilesString": "COc1ccc(/C=C2\\COc3ccc(O)cc3C2=O)c(OC)c1OC", "unitSpec": "%", "growth": 70.8}
{"structureSmilesString": "Cc1c(-c2nc3ccc(F)cc3c(=O)[nH]2)c2ccccc2n1C", "unitSpec": "%", "growth": 25.1}
